experiment: Pharmacokinetics after intraperitoneal injection in mice; type: in vivo; conditions: mouse, ip; brain; intraperitoneal injection in mice
value-type: AUC(0-inf)
# do not omit the unit; it follows the number

Input: Data request, read-out AUC(0-inf), for CC[C@@]1(O)C(=O)OCc2c1cc1n(c2=O)Cc2cc3c(CN(C)C)c(O)ccc3nc2-1
Output: 173 ng·h/mL

* * *

Target: human RORγt (Homo sapiens)
Sequence (P51449 269-508 limits assumed): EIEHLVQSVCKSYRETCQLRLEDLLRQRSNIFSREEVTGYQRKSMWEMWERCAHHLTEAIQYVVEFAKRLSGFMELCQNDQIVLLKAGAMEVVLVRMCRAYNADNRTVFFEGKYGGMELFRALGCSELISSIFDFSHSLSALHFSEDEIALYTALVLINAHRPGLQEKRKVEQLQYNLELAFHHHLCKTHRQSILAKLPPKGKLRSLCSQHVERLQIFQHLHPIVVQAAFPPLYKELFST
Experiment: Cell-based GAL4-RORγt luciferase reporter assay in HEK293T cells
Details: GAL4-RORγt expressing HEK293T cells; read-out: IC50 (antagonistic activity)
Experimental: FIG. 7A is a graph showing the inhibitory rate of various drugs as predicted by an example deep learning network system. […] In total, 18 purchasable drugs for RORγt were tested using a cell-based luciferase reporter assay. In this assay, GAL4-RORγt, with fused human RORγt LBD and GAL4 DNA binding domain are co-transfected into HEK293T cells with a luciferase reporter gene harboring the GAL4 response element33.
value-type: IC50 (nM)
Note: unit nM is implicit; provide only the numeric part.

Input: I am curious: what IC50 value has been reported for CC[C@@]1(O)C(=O)OCc2c1cc1n(c2=O)Cc2cc3c(CN(C)C)c(O)ccc3nc2-1 ?
Output: 430

* * *

Experiment: Pharmacokinetics after intraperitoneal injection in mice
Type: in vivo
Conditions: mouse, ip; brain; intraperitoneal injection in mice
Description: Where Cmax is the peak concentration, Tmax is the time between administration and reaching Cmax, and t1/2 is the elimination half-life.
value-type: AUC(0-t) (ng·h/mL)
Express it in ng·h/mL; write the number only.

Input: Data request, read-out AUC(0-t), for CC[C@@]1(O)C(=O)OCc2c1cc1n(c2=O)Cc2cc3c(CN(C)C)c(O)ccc3nc2-1 [topotecan]
Output: 170

* * *

test: Pharmacokinetics after intraperitoneal injection in mice; type: in vivo; conditions: mouse, ip; plasma; intraperitoneal injection in mice
value-type: Tmax

Input: What measured Tmax goes with CC[C@@]1(O)C(=O)OCc2c1cc1n(c2=O)Cc2cc3c(CN(C)C)c(O)ccc3nc2-1 [topotecan] ?
Output: 30 min
